Test Target: Human plasma kallikrein (Homo sapiens (Human), UniProt P03952)
Sequence (P03952 391-638): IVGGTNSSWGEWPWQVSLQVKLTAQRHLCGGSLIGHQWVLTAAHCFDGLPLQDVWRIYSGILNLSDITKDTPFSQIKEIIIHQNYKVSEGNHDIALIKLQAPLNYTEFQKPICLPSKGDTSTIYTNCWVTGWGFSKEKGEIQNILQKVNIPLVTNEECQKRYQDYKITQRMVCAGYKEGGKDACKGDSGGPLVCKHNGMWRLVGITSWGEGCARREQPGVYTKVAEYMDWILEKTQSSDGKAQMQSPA
Sequence (P03952 20-390 partner): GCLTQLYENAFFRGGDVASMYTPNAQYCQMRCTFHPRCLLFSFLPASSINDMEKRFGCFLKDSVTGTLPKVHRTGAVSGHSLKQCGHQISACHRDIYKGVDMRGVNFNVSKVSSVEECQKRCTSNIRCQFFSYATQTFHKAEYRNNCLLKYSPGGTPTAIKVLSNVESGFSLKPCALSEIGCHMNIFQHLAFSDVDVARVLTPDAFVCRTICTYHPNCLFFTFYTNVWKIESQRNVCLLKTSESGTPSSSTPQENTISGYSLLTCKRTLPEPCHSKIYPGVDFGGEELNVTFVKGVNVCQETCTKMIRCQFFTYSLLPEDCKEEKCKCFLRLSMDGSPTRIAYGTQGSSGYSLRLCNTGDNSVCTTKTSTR
Assay Info: Determination of the IC50 for plasma kallikrein (fluorogenic substrate H-DPro-Phe-Arg-AFC)
Experimental Setup: 37° C., read-out: IC50 (human PKal)
Reported pIC50 values for the following molecules.
Formally, pIC50 is defined as -log10 of the concentration c, with c in mol/L.

What value of pIC50 has been recorded for this entry: O=c1ccccn1Cc1ccc(Cn2ccc3c(NCc4cnc5[nH]ccc5c4)nccc32)cc1 [Example 3] 5.26

Recorded pIC50 for NCc1ccc(CNc2nccc3c2ccn3Cc2csc(-c3ccccc3)n2)cc1 [Example 9] , please? 5.09

# get_value(readout='pIC50', item= c1ccc(-c2nc(Cn3ccc4c(NCc5cnc6[nH]ccc6c5)nccc43)cs2)cc1 [Example 4] ) 5.27

For NCc1ccc(CNc2nccc3c2ccn3CCCCc2ccccc2)cc1 [Example 5] , what is its reported pIC50? 4.54

Can you look up the measured pIC50 of Cc1cc(CN)ccc1CNc1nccc2c1ccn2Cc1csc(-c2ccccc2)n1 [Example 6] for me? 5.07

Source: patent US9738641B2
